Data provenance is ChEMBL document CHEMBL1153985.

test system: Liver microsomes; test: Metabolic stability in human liver microsomes assessed as intrinsic clearance; format: ADME, Microsome
REPORTED_METRIC: clearance (µL/min/mg)
Give just the number in µL/min/mg; leave the unit off.

Report clearance for "c1nc(NC2CCCCCC2)c2cc(OCCN3CCOCC3)ncc2n1"
24

* * *

test: Lipophilicity, log D of the compound; type: physicochemical; settings: octanol/water
In this section, each of the compounds is paired with its reported logD.
Just the number, please, no unit attached.

Report logD for "CNc1cc2c(NC3Cc4ccccc4C3)ncnc2cn1"
2.9

Report logD for "OCCOCCNc1cc2c(NC3Cc4ccccc4C3)ncnc2cn1"
3

Report logD for "c1nc(NC2CCCCCC2)c2cc(OCCN3CCOCC3)ncc2n1"
3.4

Report logD for "c1nc(NC2CCCCC2)c2cc(NCCN3CCOCC3)ncc2n1"
2.8

* * *

experiment: Clearance in rat at 1 mg/kg; type: ADME, organism-based; set-up: dose 1 mg/kg; conditions: in vivo
REPORTED_METRIC: clearance (mL/min/kg)
Give just the number in mL/min/kg; leave the unit off.

Report clearance for "OCCOCCNc1cc2c(NC3Cc4ccccc4C3)ncnc2cn1"
26

* * *

assay: Ratio of free drug level in cerebrospinal fluid to steady state unbound plasma in iv dosed rat; assay type: ADME, organism-based
REPORTED_METRIC: Kp uu

Some solved entries appear below for comparison.
{"CPD_SMILES": "OCCOCCNc1cc2c(NC3Cc4ccccc4C3)ncnc2cn1", "Kp uu": 0.02}
{"CPD_SMILES": "c1nc(NC2CCCCCC2)c2cc(OCCN3CCOCC3)ncc2n1", "Kp uu": 0.5}

Report Kp uu for "c1nc(NC2CCCCC2)c2cc(NCCN3CCOCC3)ncc2n1"
0.07

Report Kp uu for "CNc1cc2c(NC3Cc4ccccc4C3)ncnc2cn1"
0.06

* * *

assay: Oral bioavailability in rat at 1 mg/kg; format: ADME, organism-based; settings: in vivo
REPORTED_METRIC: bioavailability (%)
Give just the number in %; leave the unit off.

Report bioavailability for "OCCOCCNc1cc2c(NC3Cc4ccccc4C3)ncnc2cn1"
33

* * *

molecular target: Metabotropic glutamate receptor 5 (Homo sapiens, UniProt P41594); assay: Antagonist activity at mGluR5
Sequence (P41594 whole entry): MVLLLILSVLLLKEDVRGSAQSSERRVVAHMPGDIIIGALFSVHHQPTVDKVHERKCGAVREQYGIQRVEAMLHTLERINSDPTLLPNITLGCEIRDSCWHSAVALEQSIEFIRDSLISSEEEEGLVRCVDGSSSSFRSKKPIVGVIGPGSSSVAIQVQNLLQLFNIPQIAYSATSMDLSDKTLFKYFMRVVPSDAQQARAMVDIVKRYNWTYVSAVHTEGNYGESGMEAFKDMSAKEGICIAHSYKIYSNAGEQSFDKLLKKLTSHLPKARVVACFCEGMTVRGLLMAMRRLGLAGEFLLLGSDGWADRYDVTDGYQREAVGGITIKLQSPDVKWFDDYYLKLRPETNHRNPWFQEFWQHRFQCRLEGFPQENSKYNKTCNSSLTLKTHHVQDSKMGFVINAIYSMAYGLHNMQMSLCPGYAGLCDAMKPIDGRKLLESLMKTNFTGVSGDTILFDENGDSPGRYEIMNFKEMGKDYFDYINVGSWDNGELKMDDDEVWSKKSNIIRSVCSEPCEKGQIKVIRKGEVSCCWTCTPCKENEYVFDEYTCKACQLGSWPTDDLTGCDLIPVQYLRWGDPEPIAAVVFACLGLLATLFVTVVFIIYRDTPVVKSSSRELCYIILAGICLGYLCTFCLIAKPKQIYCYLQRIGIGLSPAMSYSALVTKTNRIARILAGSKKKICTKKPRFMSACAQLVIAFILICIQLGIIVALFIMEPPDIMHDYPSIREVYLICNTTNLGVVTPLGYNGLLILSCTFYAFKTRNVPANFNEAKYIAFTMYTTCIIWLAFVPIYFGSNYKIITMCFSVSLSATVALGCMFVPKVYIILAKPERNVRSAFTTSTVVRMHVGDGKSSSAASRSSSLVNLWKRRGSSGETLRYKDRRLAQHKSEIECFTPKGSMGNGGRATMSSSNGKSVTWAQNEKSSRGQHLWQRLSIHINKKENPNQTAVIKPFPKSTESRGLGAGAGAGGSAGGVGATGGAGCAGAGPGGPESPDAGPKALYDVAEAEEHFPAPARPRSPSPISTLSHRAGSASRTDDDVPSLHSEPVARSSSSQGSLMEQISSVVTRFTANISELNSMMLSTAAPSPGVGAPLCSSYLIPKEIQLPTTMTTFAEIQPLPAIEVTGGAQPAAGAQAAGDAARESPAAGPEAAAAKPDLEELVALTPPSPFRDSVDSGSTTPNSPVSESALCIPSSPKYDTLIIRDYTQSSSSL
REPORTED_METRIC: IC50

Report IC50 for "OCCOCCNc1cc2c(NC3Cc4ccccc4C3)ncnc2cn1"
> 3 µM

* * *

In this section, each of the compounds is paired with its reported Ki.
target: Metabotropic glutamate receptor 1 (Rattus norvegicus); experiment: Antagonist activity at rat mGluR1a expressed in CHO cells assessed as inhibition of glutamate-evoked increase in calcium […] preincubated 5 mins before glutamate challenge

Some solved entries appear below for comparison.
{"CPD_SMILES": "COCCNc1cc2c(NC3Cc4ccccc4C3)ncnc2cn1", "TESTED_TARGET": "Metabotropic glutamate receptor 1 (Rattus norvegicus)", "Ki": "5 nM"}
{"CPD_SMILES": "c1ccc2c(c1)CC(Nc1cc3c(NC4Cc5ccccc5C4)ncnc3cn1)C2", "TESTED_TARGET": "Metabotropic glutamate receptor 1 (Rattus norvegicus)", "Ki": "31 nM"}
{"CPD_SMILES": "c1nc(NC2CCCCC2)c2cc(OCCN3CCOCC3)ncc2n1", "TESTED_TARGET": "Metabotropic glutamate receptor 1 (Rattus norvegicus)", "Ki": "42 nM"}

Report Ki for "COc1cc2c(NC3Cc4ccccc4C3)ncnc2cn1"
115 nM

* * *

target: Metabotropic glutamate receptor 1 (Rattus norvegicus, UniProt P23385); experiment: Antagonist activity at rat mGluR1a expressed in CHO cells assessed as inhibition of glutamate-evoked increase in calcium […] preincubated 5 mins before glutamate challenge
Sequence (P23385 whole entry): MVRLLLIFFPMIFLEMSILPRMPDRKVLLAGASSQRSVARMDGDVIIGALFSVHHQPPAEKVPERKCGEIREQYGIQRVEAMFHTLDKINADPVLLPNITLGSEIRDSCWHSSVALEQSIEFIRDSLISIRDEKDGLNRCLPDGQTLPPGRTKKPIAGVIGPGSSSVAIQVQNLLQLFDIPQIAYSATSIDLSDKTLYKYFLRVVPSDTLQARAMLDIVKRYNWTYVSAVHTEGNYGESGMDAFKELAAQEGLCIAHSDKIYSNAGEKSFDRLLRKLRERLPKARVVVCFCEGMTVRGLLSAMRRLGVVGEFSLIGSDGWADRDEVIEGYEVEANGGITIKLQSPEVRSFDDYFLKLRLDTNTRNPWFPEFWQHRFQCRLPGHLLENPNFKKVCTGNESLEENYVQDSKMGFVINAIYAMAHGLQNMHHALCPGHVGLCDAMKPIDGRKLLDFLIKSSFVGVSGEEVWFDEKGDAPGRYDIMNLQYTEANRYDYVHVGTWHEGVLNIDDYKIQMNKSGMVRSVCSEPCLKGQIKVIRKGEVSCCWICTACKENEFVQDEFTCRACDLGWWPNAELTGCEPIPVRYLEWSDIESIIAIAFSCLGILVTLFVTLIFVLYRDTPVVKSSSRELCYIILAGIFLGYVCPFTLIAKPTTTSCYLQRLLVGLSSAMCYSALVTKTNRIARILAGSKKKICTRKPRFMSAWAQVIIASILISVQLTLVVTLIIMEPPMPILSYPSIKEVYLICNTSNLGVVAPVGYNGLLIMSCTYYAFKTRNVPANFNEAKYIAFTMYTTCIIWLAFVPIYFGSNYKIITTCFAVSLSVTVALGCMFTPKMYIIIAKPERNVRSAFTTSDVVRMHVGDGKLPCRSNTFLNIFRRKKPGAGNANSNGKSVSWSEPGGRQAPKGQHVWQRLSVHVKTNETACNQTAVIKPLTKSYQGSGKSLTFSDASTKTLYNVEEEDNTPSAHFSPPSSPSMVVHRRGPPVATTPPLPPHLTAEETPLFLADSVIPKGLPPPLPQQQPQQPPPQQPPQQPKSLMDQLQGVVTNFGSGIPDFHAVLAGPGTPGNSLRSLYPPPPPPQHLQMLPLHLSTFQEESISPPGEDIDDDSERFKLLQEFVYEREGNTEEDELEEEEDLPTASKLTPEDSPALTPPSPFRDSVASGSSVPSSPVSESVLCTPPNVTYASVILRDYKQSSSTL
In this section, each of the molecules is paired with its reported log10 of Ki.
The figures below represent log10 of Ki, where Ki is stated in nM.

Some solved entries appear below for comparison.
{"CPD_SMILES": "CN(C)CCNc1cc2c(NC3Cc4ccccc4C3)ncnc2cn1", "REPORTED_METRIC": "log10 of Ki", "QUANTITATIVE_READOUT": 2.01}
{"CPD_SMILES": "OCCNc1cc2c(NCCO)ncnc2cn1", "REPORTED_METRIC": "log10 of Ki", "QUANTITATIVE_READOUT": 3.79}
{"CPD_SMILES": "C[C@H](Nc1ncnc2cnc(N(C)C)cc12)c1ccccc1", "REPORTED_METRIC": "log10 of Ki", "QUANTITATIVE_READOUT": 3.15}
{"CPD_SMILES": "OCCOCCNc1cc2c(NC3Cc4ccccc4C3)ncnc2cn1", "REPORTED_METRIC": "log10 of Ki", "QUANTITATIVE_READOUT": 0.48}
{"CPD_SMILES": "CN(C)c1cc2c(NC3Cc4ccccc4C3)ncnc2cn1", "REPORTED_METRIC": "log10 of Ki", "QUANTITATIVE_READOUT": 2.27}
{"CPD_SMILES": "NCCNc1cc2c(NC3CCCCC3)ncnc2cn1", "REPORTED_METRIC": "log10 of Ki", "QUANTITATIVE_READOUT": 3.34}
{"CPD_SMILES": "OCCCOc1cc2c(NC3CCCCC3)ncnc2cn1", "REPORTED_METRIC": "log10 of Ki", "QUANTITATIVE_READOUT": 1.52}
{"CPD_SMILES": "CNc1cc2c(NC3Cc4ccccc4C3)ncnc2cn1", "REPORTED_METRIC": "log10 of Ki", "QUANTITATIVE_READOUT": 1.15}

Report log10 of Ki for "CNc1ncnc2cnc(NC3Cc4ccccc4C3)cc12"
2.20

Report log10 of Ki for "NCCCNc1cc2c(NC3CCCCC3)ncnc2cn1"
2.30

Report log10 of Ki for "CNc1cc2c(N(C)C3Cc4ccccc4C3)ncnc2cn1"
1.73

Report log10 of Ki for "c1nc(NC2CCCCC2)c2cc(NCCN3CCOCC3)ncc2n1"
1.00

Report log10 of Ki for "CN(C)c1cc2c(N(C)C3Cc4ccccc4C3)ncnc2cn1"
2.48

Report log10 of Ki for "OCCOc1cc2c(NC3CCCCC3)ncnc2cn1"
2.25

Report log10 of Ki for "c1ccc2c(c1)CC(Nc1ncnc3ccccc13)C2"
1.53

Report log10 of Ki for "c1ccc2c(c1)CC(Nc1nccc3ccccc13)C2"
3.22

Report log10 of Ki for "c1nc(NC2CCCCCC2)c2cc(OCCN3CCOCC3)ncc2n1"
0.78

Report log10 of Ki for "c1ccc2c(OC3CCCCC3)ncnc2c1"
2.84
